# assayed_target: human recombinant P2X7 receptor (Homo sapiens (Human), UniProt Q99572)
# Sequence (Q99572 whole entry): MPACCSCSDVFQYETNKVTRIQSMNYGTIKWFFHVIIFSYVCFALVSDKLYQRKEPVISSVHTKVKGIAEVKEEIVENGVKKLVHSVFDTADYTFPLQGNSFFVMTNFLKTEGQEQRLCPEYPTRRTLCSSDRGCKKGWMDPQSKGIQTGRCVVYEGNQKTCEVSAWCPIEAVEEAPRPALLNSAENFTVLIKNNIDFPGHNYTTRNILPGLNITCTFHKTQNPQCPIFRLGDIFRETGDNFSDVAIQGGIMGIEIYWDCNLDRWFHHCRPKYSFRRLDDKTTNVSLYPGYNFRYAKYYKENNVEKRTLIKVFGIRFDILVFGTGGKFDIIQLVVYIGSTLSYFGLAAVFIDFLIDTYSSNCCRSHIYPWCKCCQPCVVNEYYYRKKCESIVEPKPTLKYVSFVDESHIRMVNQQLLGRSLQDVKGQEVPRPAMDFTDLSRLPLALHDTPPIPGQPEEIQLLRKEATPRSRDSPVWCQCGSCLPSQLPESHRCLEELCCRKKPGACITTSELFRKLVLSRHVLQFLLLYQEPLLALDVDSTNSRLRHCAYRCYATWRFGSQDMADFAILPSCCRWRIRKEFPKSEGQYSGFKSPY
# test_name: YO-PRO assay: P2X7 receptor antagonistic activity
# protocol_conditions: HEK cells expressing human P2X7
Note to self: use label 1 only for IC50 readings below 2000 nM; a reading exactly at 2000 nM still gets label 0.

>>> print(df.to_string())
                                   compound                            assayed_target      cat
0  O=C(Cc1ccc(F)cc1F)NC1COc2ncccc21 (racemic) [Example 17]  human recombinant P2X7 receptor (Homo sapiens (Human), UniProt Q99572)  label 1
1  COc1cc(C)nc2c1C(NC(=O)Cc1cccc(C(F)(F)F)c1Cl)CO2 (racemic) [Example 135]  human recombinant P2X7 receptor (Homo sapiens (Human), UniProt Q99572)  label 0
2  O=C(Cc1ccc(Cl)cc1)NC1COc2ncccc21 (racemic) [Example 15]  human recombinant P2X7 receptor (Homo sapiens (Human), UniProt Q99572)  label 1
3  CCc1cc(Cl)cc(Cl)c1CC(=O)NC1COc2ncccc21 (racemic) [Example 32]  human recombinant P2X7 receptor (Homo sapiens (Human), UniProt Q99572)  label 1
4  O=C(Cc1ccc(Oc2ccccc2)cc1)NC1CCOc2ncccc21 (racemic) [Example 48]  human recombinant P2X7 receptor (Homo sapiens (Human), UniProt Q99572)  label 0

Is the reported IC50 for O=C(COc1ccc(Cl)c(Cl)c1)NC1COc2ncccc21 (racemic) [Example 141] strictly below 2000 nM?
label 0

###

Reported IC50 values for the following molecules.
# assayed_target: human recombinant P2X7 receptor (Homo sapiens (Human), UniProt Q99572)
# test_name: YO-PRO assay: P2X7 receptor antagonistic activity
# protocol_conditions: HEK cells expressing human P2X7
Form entry: value (nM) — number only.

                                   molecule  scale_unit  data_value
0  O=C(Cc1ccc(Cl)cc1Cl)NC1COc2c1ccnc2C1CC1 (racemic)          nM          71
1  O=C(NC1COc2ncccc21)C1CCc2cc(Cl)cc(Cl)c21 (single isomer, unassigned) [Example 146]          nM         160
2  O=C(Cc1cccc(C(F)(F)F)c1Cl)NC1COc2cnc(Cl)cc21 (racemic)          nM          81
3  CC(C(=O)NC1COc2ncccc21)c1ccc(Cl)cc1Cl (stereo not shown) [Example 85]          nM          15
4  N#Cc1ccccc1CC(=O)NC1COc2ncccc21 (racemic)          nM        2980

# next molecule below
Documented IC50 of [2H]C([2H])([2H])C(C(=O)NC1COc2ncccc21)c1ccc(Cl)cc1Cl (stereo not shown) : 33
